target entity: hPPARalpha (Homo sapiens)
Construct: Gal4-hPPARα(LBD); Gal4 (fusion partner); expressed in transfected cells; host or cells: COS-7 (monkey kidney)
Sequence (Q07869 239-466 limits assumed): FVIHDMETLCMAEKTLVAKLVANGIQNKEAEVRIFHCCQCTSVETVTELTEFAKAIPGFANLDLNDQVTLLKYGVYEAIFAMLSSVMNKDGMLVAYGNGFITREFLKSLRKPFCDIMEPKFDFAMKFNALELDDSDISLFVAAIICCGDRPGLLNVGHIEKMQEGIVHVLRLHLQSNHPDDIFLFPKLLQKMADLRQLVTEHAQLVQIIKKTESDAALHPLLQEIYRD
assay protocol: Gal4-hPPARalpha transactivation assay in COS-7 cells (luciferase)
Type: cell-based
experimental parameters: COS-7, maximal relative activation vs reference; read-out: Gal4-hPPARα(LBD) TOP (% ref)
measure name: Emax (%)
Use % as the unit, but write only the number.

COC(c1ccc(OC(F)(F)F)cc1)C1CC1c1ccc(OC(C)(C)C(=O)O)c(C(C)C)c1 (single isomer, unassigned) ... 24

-- ask Entry CCOC(c1ccc(OC(F)(F)F)cc1)C1CC1c1cc(C)c(OC(C)(C)C(=O)O)c(C)c1 (racemic) : reported Emax = ?
-- reply 51

-- ask Entry COC(c1ccc(C(F)(F)F)cc1F)C1CC1c1cc(C)c(OC(C)(C)C(=O)O)c(C)c1 (single isomer, unassigned) : reported Emax = ?
-- reply 47

====

target entity: hPPARdelta (Homo sapiens)
Construct: Gal4-hPPARδ(LBD); Gal4 (fusion partner); expressed in transfected cells; host or cells: COS-7 (monkey kidney)
Sequence (Q03181 211-439 limits assumed): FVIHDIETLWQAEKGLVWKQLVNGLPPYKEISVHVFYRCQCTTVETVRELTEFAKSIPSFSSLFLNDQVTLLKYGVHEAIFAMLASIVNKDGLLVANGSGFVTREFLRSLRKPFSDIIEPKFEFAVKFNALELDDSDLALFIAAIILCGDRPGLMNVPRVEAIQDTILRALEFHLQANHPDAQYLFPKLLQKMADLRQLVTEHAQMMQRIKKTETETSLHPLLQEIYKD
assay protocol: Gal4-hPPARdelta transactivation assay in COS-7 cells (luciferase)
Type: cell-based
experimental parameters: Gal4-hPPARδ(LBD) transactivation; listed as cpd 14-2-2
measure name: EC50 (nM)
Use nM as the unit, but write only the number.

-- ask Entry COC(c1ccc(OC(F)(F)F)cc1)C1CC1c1cc(C)c(OC(C)(C)C(=O)O)c(C)c1 (stereo not shown) : reported EC50 = ?
-- reply 59

====

target entity: hPPARgamma (Homo sapiens)
Construct: Gal4-hPPARγ(LBD); Gal4 (fusion partner); expressed in transfected cells; host or cells: COS-7 (monkey kidney)
Sequence (P37231 238-503 limits assumed): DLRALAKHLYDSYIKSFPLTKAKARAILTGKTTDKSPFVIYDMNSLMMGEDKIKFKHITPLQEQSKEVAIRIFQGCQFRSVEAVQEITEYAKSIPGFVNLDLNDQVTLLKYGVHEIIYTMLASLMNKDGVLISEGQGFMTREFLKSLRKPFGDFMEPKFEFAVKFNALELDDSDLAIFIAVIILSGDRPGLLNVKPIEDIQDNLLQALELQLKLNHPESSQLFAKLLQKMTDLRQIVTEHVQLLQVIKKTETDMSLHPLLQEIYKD
assay protocol: Gal4-hPPARgamma transactivation assay in COS-7 cells (luciferase)
Type: cell-based
experimental parameters: COS-7, maximal relative activation vs reference; read-out: Gal4-hPPARγ(LBD) TOP (% ref)
measure name: Emax (%)
Use % as the unit, but write only the number.

-- ask Entry COC(c1ccc(OC(F)(F)F)cc1)C1CC1c1ccc(OC(C)(C)C(=O)O)c(C)c1 (racemic) : reported Emax = ?
-- reply 55

-- ask Entry COC(c1ccc(C(F)(F)F)cc1C(F)(F)F)C1CC1c1cc(C)c(OC(C)(C)C(=O)O)c(C)c1 (single isomer, unassigned) : reported Emax = ?
-- reply 80

-- ask Entry COC(c1ccc(SC)cc1)C1CC1c1cc(C)c(OC(C)(C)C(=O)O)c(C)c1 (single isomer, unassigned) : reported Emax = ?
-- reply 79

-- ask Entry Cc1cc(C2CC2C(OCc2ccccc2)c2ccc(OC(F)(F)F)cc2)cc(C)c1OC(C)(C)C(=O)O (single isomer, unassigned) : reported Emax = ?
-- reply 86

-- ask Entry COC(c1ccc(C)cc1)C1CC1c1cc(C)c(OC(C)(C)C(=O)O)c(C)c1 (racemic) : reported Emax = ?
-- reply 72

-- ask Entry Cc1cc(C2CC2C(OCCC2CCCCC2)c2ccc(OC(F)(F)F)cc2)cc(C)c1OC(C)(C)C(=O)O (racemic) : reported Emax = ?
-- reply 71

====

target entity: hPPARdelta (Homo sapiens, UniProt Q03181)
Construct: Gal4-hPPARδ(LBD); Gal4 (fusion partner); expressed in transfected cells; host or cells: COS-7 (monkey kidney)
assay protocol: Gal4-hPPARdelta transactivation assay in COS-7 cells (luciferase)
Type: cell-based
experimental parameters: COS-7, maximal relative activation vs reference; read-out: Gal4-hPPARδ(LBD) TOP (% ref)
Reported Emax values follow for various compounds
Field: value (include unit after the number)

Answered cases to consult:
COC(c1ccc(OC(F)(F)F)cc1)C1CC1c1ccc(OC(C)(C)C(=O)O)c(C)c1 (racemic) ... 90%
COC(c1ccc(OC(F)(F)F)cc1)C1CC1c1ccc(OC(C)(C)C(=O)O)c(C2CC2)c1 (racemic) ... 88%
CCOC(c1ccc(OC(F)(F)F)cc1)C1CC1c1cc(C)c(OC(C)(C)C(=O)O)c(C)c1 (racemic) ... 90%
COC(c1ccc(SC(F)(F)F)cc1)C1CC1c1cc(C)c(OC(C)(C)C(=O)O)c(C)c1 (racemic) ... 89%
COC(c1ccc(C)cc1)C1CC1c1cc(C)c(OC(C)(C)C(=O)O)c(C)c1 (racemic) ... 85%
Cc1cc(C2CC2C(OCc2ccccc2)c2ccc(OC(F)(F)F)cc2)cc(C)c1OC(C)(C)C(=O)O (single isomer, unassigned) ... 75%

// moving on: another record for Emax
-- ask What value of Emax on hPPARdelta (Homo sapiens, UniProt Q03181) does Cc1cc(C2CC2C(OCCC2CCCCC2)c2ccc(OC(F)(F)F)cc2)cc(C)c1OC(C)(C)C(=O)O (racemic) have?
-- reply 72%

====

target entity: hPPARalpha (Homo sapiens, UniProt Q07869)
Construct: Gal4-hPPARα(LBD); Gal4 (fusion partner); expressed in transfected cells; host or cells: COS-7 (monkey kidney)
assay protocol: Gal4-hPPARalpha transactivation assay in COS-7 cells (luciferase)
Assay type: cell-based
experimental parameters: Gal4-hPPARα(LBD) transactivation
measure name: pEC50
Just so you know, pEC50 here is -log10 of the concentration in molar units; reply with that number alone.

Answered cases to consult:
COC(c1ccc(Br)cc1)C1CC1c1cc(C)c(OC(C)(C)C(=O)O)c(C)c1 (racemic) [Cpd 1-2] ... 6.73
Cc1cc(C2CC2C(OCCC2CCCCC2)c2ccc(OC(F)(F)F)cc2)cc(C)c1OC(C)(C)C(=O)O (racemic) [Cpd 6-2] ... 7.59

-- ask Entry CCCCOC(c1ccc(OC(F)(F)F)cc1)C1CC1c1cc(C)c(OC(C)(C)C(=O)O)c(C)c1 (single isomer, unassigned) [Cpd 5-1] : reported pEC50 = ?
-- reply 7.33

-- ask Entry COC(c1ccc(OC(F)(F)F)cc1)C1CC1c1cc(F)c(OC(C)(C)C(=O)O)c(F)c1 (racemic) : reported pEC50 = ?
-- reply 6.84

-- ask Entry CCCCOC(c1ccc(OC(F)(F)F)cc1)C1CC1c1cc(C)c(OC(C)(C)C(=O)O)c(C)c1 (single isomer, unassigned) [Cpd 5-2] : reported pEC50 = ?
-- reply 7.27

-- ask Entry Cc1cc(C2CC2C(OCCC2CCCCC2)c2ccc(OC(F)(F)F)cc2)cc(C)c1OC(C)(C)C(=O)O (racemic) [Cpd 6-1] : reported pEC50 = ?
-- reply 7.17

-- ask Entry CCOC(c1ccc(OC(F)(F)F)cc1)C1CC1c1cc(C)c(OC(C)(C)C(=O)O)c(C)c1 (racemic) [Cpd 10-2] : reported pEC50 = ?
-- reply 7.52

====

target entity: hPPARdelta (Homo sapiens, UniProt Q03181)
Construct: Gal4-hPPARδ(LBD); Gal4 (fusion partner); expressed in transfected cells; host or cells: COS-7 (monkey kidney)
assay protocol: Gal4-hPPARdelta transactivation assay in COS-7 cells (luciferase)
Format: cell-based
experimental parameters: maximal relative activation vs reference
Reported Gal4-hPPARδ(LBD) TOP (% ref) values follow for various compounds
Use % ref as the unit, but write only the number.

Answered cases to consult:
CCOC(c1ccc(OC(F)(F)F)cc1)C1CC1c1cc(C)c(OC(C)(C)C(=O)O)c(C)c1 (racemic) ... 73
Cc1cc(C2CC2C(OCc2ccccc2)c2ccc(OC(F)(F)F)cc2)cc(C)c1OC(C)(C)C(=O)O (racemic) ... 67

-- ask What value of Gal4-hPPARδ(LBD) TOP (% ref) on hPPARdelta (Homo sapiens, UniProt Q03181) does COC(c1ccccc1OC(F)(F)F)C1CC1c1cc(C)c(OC(C)(C)C(=O)O)c(C)c1 (racemic) have?
-- reply 57

====

Reported Emax values follow for various compounds
target entity: hPPARdelta (Homo sapiens)
Construct: Gal4-hPPARδ(LBD); Gal4 (fusion partner); expressed in transfected cells; host or cells: COS-7 (monkey kidney)
assay protocol: Gal4-hPPARdelta transactivation assay in COS-7 cells (luciferase)
Assay type: cell-based
experimental parameters: COS-7, maximal relative activation vs reference; read-out: Gal4-hPPARδ(LBD) TOP (% ref)
Use % as the unit, but write only the number.

Answered cases to consult:
COC(c1ccc(C(F)(F)F)cc1C(F)(F)F)C1CC1c1cc(C)c(OC(C)(C)C(=O)O)c(C)c1 (single isomer, unassigned) ... 60
COC(c1ccc(OC(F)(F)F)cc1)C1CC1c1cc(F)c(OC(C)(C)C(=O)O)c(F)c1 (racemic) ... 84
COC(c1ccc(C(F)(F)F)cc1)C1CC1c1cc(C)c(OC(C)(C)C(=O)O)c(C)c1 (racemic) ... 92

-- ask Entry COC(c1ccc(OC(F)(F)F)cc1)C1CC1c1ccc(OC(C)(C)C(=O)O)c(Br)c1 (racemic) : reported Emax = ?
-- reply 100

-- ask Entry CCCCOC(c1ccc(OC(F)(F)F)cc1)C1CC1c1cc(C)c(OC(C)(C)C(=O)O)c(C)c1 (single isomer, unassigned) : reported Emax = ?
-- reply 62

-- ask Entry COc1cc(OC(F)(F)F)ccc1C(OC)C1CC1c1cc(C)c(OC(C)(C)C(=O)O)c(C)c1 (racemic) : reported Emax = ?
-- reply 86

-- ask Entry COC(c1ccc(OC(F)(F)F)cc1)C1CC1c1ccc(OC(C)(C)C(=O)O)c(C(C)C)c1 (single isomer, unassigned) : reported Emax = ?
-- reply 92
